Assign apparent KD of MS2 coat protein to each entry below.
- Test system: MS2 coat protein
- TEST: apparent KD of MS2 coat protein; designed switch direction (-1 OFF switch, 1 ON switch): -1; higher = weaker reporter binding
- ASSAY_CONTEXT: input ligand: FMN 200 uM
Numbers only, in µM.

Below: 4 sequences and their reported apparent KD of MS2 coat protein.
1) AAAAAGGGAGGAUAUACAUGAGGAUCACCCAUGUAGCAGACGAAAAAGAGUCUGUAAUGUAGAAGGCCCAAAAA [65%, Moding Exclusion3-cac2, 4] (Eterna round: R96, puzzle: Exclusion 3) | 0.0509
2) GCAGCAAAUUCCACUAAAACCACAUGAGGAUCACCCAUGUCUCAGGAUAUGGUCUGGAUUACAGGCCAGAAGGGAGAAAGCUGC [Eli exng3 - 056] (Eterna round: R96, puzzle: Exclusion NG 3) | 0.0123
3) CCGAAACAUGAGGAUCACCCAUGUGAGGAUAUGAGCGUCUAGUUGAGAGAUUGGACGCUCAGAAGGCACAAAGG [JR_Ex1_Sub074] (Eterna round: R97, puzzle: Exclusion 1) | 0.105
4) AGGUGUAGAGGAUAUCUAUCCUCCCACAUGAGGAUCACCCAUGUCCUGGUCACCAAGGACGGAGAAGGCUACACCA [Omei Ex5 D19] (Eterna round: R97, puzzle: Exclusion 5) | 0.153

For the sequence AAUUAACAUGUAGGAUAUCUGCACGAUUAGUGCAGAGAAGGACAUGAGGAUCACCCAUGUAUAGCGACUUCGGUCGCAAUAAUU [ENG1/2-B1] (Eterna round: R96, puzzle: Exclusion NG 1) , give its measured apparent KD of MS2 coat protein value.
0.161

====

- Test system: MS2 coat protein
- TEST: apparent KD of MS2 coat protein; designed switch direction (-1 OFF switch, 1 ON switch): -1; higher = weaker reporter binding
- ASSAY_CONTEXT: Eterna round: R95; input ligand: none
MEASUREMENT_NAME: apparent KD of MS2 coat protein (nM)
Numbers only, in nM.

1. ACCUCACAUGAGGAUCACCCAUGUCAGGAUAUACAAGAAAAUAACCGGAAAGACCGGAGUAGAAGGGACAUAAG [Arisus] (puzzle: Exclusion 1) | 17.1
2. AAGUACCGUCACGAUAGUGAUGGUACAACAAGUAGUGAAACAUGAGGAUCACCCAUGUCCUCAUUUGCUCGUCUUAU [Sensor 3 - 87] (puzzle: Sensor v3, turn-off variant 2) | 806
3. CUCGUGGUGAAGGAUAUCCGCGAGAAAAUAAAAGGAGAAGGUCACACAUGAGGAUCACCCAUGUGAUGAAGAAA [Anesanza] (puzzle: Exclusion 6) | 11.9
4. AUAUAACAUGAGGAUCACCCAUGUGAGGAUAUGCGAUAUAUAAUAAUAAUAAUAAUAAGCAGAAGGCACAAAAU [My FIrst Design] (puzzle: Exclusion 1) | 71.7

State the recorded apparent KD of MS2 coat protein for every item in the following list.
1. UUUAAUUUUUUUUUUUUACAAGCUUUUUGCUCGUCUUAUACAUGAGGAUCACCCAUGUGGGUGGAAAAUAAAUUAUC [JMF 92] (puzzle: Sensor v3, turn-off variant 2)
2. ACAAGCUUUUUGUUCGUCUUAUAAUAUUCUAAGAGGAUAACAUGAGGAUCACCCAUGUAACAAAGACGGACUCAUGU [Sesor Array 14 - Jieux - Sensor v3, turn-off variant 2] (puzzle: Sensor v3, turn-off variant 2)
3. UUUUAACAUGAGGAUCACCCAUGUGAGGAUAUGGUUUUUUUUUUUUUUUUUUUUUUUUCCAGAAGGCACAUUUU [My solution] (puzzle: Exclusion 1)
4. GCCAGAGCAGGAUAUUGAAUAAUUCACAUGAGGAUCACCCAUGUCCAGCGAAAGCUGGAACGAGAAGGGCUCUGGC [Fiskers Ex 5 - 5] (puzzle: Exclusion 5)

[88.4, 11.7, 119, 11.1]

Look up apparent KD of MS2 coat protein for the entries below, preserving their order.
1. AAAAGGCGUGUGAGGAUAUCCGGAGACGUGAAAAGGGAGAAGGCACAUGAGGAUCACCCAUGUGGAGUGUAAAG [Uscece] (puzzle: Brourd's mod of Exclusion 4)
2. GAGGAACAUGAGGAUCACCCAUGUAAGGAUAUGCAAAGAGAGGUAGUAGAAGGAGAAGGCAGAAGGUACAAGGA [JR_Exclu1_Sub074] (puzzle: Exclusion 1)
3. GAUUAUGCGAGCUUUAGGGACAUGAGGAUCACCCAUGUUCGUCUUAUUAAUCUGGGUACACUAACAUACCUAAAUCU [JMF 9] (puzzle: Sensor v3, turn-off variant 1)

[27.5, 50, 31.4]

====

- System: MS2 coat protein
- TEST: apparent KD of MS2 coat protein; higher = weaker reporter binding
- ASSAY_CONTEXT: Eterna round: R107; input ligand: arginine 13.2 mM
Output Fulfilled for apparent KD of MS2 coat protein not less than 30 nM; output Not fulfilled otherwise.

1) UUAAUCAUAUAUGAAAACAUAUAUGCAGAAGGAGCGUGAUAAAACACAGGUAGGUCGCUGAAGGGAACAUGAGGAUCACCCAUGU [AstrosSSArgA#2] | Fulfilled

Reported apparent KD of MS2 coat protein at or above 30 nM? AGCUCGCAUCCUCAAGCGUCAAAGACGCGUCGAGGACCGGUACGGCCGCCACUCGACCUGAGGAACACCCAGGUCCUCGCGAGCA [TrypAX 7 #SwitchBubble #AlternativeMS2 #MS2Late #CuTurnoff]
Not fulfilled

====

- Test system: MS2 coat protein
- TEST: apparent KD of MS2 coat protein; designed switch direction (-1 OFF switch, 1 ON switch): 1; higher = weaker reporter binding
- ASSAY_CONTEXT: Eterna round: R95; input ligand: microRNA oligo, concentration not stated
Could you please report measured apparent KD of MS2 coat protein for the items listed next?
Numbers only, in nM.

Examples with answers:
1. GGUCCAGCCUGAGCUGGACUACAGCAUGUACAUGAGGAUCACCCAUGUCAUGUACAAGUAUGUUGUUUGUCUUAAAA [Sensorship 7 - Jieux - Sensor for hsa-mir-208a] (puzzle: Sensor for hsa-mir-208a) | 37.5
2. CUGCUACAUGAGGAUCACCCAUGUUGGAGUGAUGCAGGAUAUGUGGGACCAGAAGAUGAAACAGAAGGGCAAAGAA [JR_SS!_Sub005] (puzzle: Same State 1) | 119

Let's switch to this sequence now.
Using known records, supply apparent KD of MS2 coat protein for UUGCGCUGUCGAGAGGAUAUGCGGUGUUGGACAUGAGGAUCACCCAUGUUAGCGAUAGCAUUACGGUAGAAGGCUCUUCAGCUGC [salish99_ss2_r3_096] (puzzle: Same State 2)
17

====

- Tested on: MS2 coat protein
- TEST: apparent KD of MS2 coat protein; designed switch direction (-1 OFF switch, 1 ON switch): -1; higher = weaker reporter binding
- ASSAY_CONTEXT: Eterna round: R95; input ligand: FMN 200 uM
// 0 (no) strictly below 30 nM in apparent KD of MS2 coat protein; 1 (yes) otherwise

Is apparent KD of MS2 coat protein at least 30 nM? Consider GAUUAUGCGAGCUUUAGGGACAUGAGGAUCACCCAUGUUCGUCUUAUUAAUCUGGGUACACUGACAUACCUAAAUCU [JMF 69] (puzzle: Sensor v3, turn-off variant 1)
1 (yes)

Please tell me: is the sequence AGUACUAACACGAAAGUGUUAGUAAAAUAAGCUUGUGGUACAUGAGGAUCACCCAUGUCCUCAUAAGCUCGUCUUAU [Mat - Sensor v3 - Turn-off var 2 - D42] (puzzle: Sensor v3, turn-off variant 2) at or over 30 nM in terms of apparent KD of MS2 coat protein?
0 (no)

Tell me whether apparent KD of MS2 coat protein is at least 30 nM here: AGUAACUAUCACGAAAGUGAUAGUUACACAAGUAGUGAAACAUGAGGAUCACCCAUGUCCUCAUUUGCUCGUCUUAU [Sensor 3 - 33] (puzzle: Sensor v3, turn-off variant 2)
1 (yes)

Textbook exercise: given the entry AAUACAAGCAAGAUCCUAAACAUGAGGAUCACCCAUGUGCUCGUCUUAUAAAGUACUAUCACGAAAGUGAUAGUACA [Sensor 3, v1 - 63] (puzzle: Sensor v3, turn-off variant 1) , state whether its apparent KD of MS2 coat protein is greater than or equal to 30 nM.
1 (yes)

Determine whether measured apparent KD of MS2 coat protein meets or exceeds 30 nM for GAUUAUGCGAGCUUUAGGGACAUGAGGAUCACCCAUGUUCGUCUUAUUAAUCUGGGUGCGCUAACAUACCUAAAUCU [JMF 52] (puzzle: Sensor v3, turn-off variant 1)
1 (yes)

====

- System: MS2 coat protein
- TEST: apparent KD of MS2 coat protein; designed switch direction (-1 OFF switch, 1 ON switch): -1; higher = weaker reporter binding
- ASSAY_CONTEXT: Eterna round: R95; input ligand: FMN 200 uM
For each entry below, report its apparent KD of MS2 coat protein value.
Give bare numbers, in µM.

These recorded examples may help you get a feel for the data.
1) UUUUUCAGGCCAGAUCCUCACAUGAGGAUCACCCAUGUGCUCGUCUGUUUUCGCGCUAGCUUUUUUUUGGUAGGGCU [Level Boss var2-17] (puzzle: Sensor v3, turn-off variant 1) | 0.329
2) CAGCCUUGAGUUAGGAUAUGCGAUCGUGUAGACGAGCAGAAGGGACAUGAGGAUCACCCAUGUGAAAUAAUUAA [Begeti] (puzzle: Brourd's mod of Exclusion 4) | 0.0183
3) GCAAGCGAUUAGGCUCGUCUUAUAAAGAAAAGAAUGAAAACAUGAGGAUCACCCAUGUAAGUGGGAAAGUUGAAGUG [JR_SV3TOV2_Sub009] (puzzle: Sensor v3, turn-off variant 2) | 0.267

Each sequence below has a recorded value; state its apparent KD of MS2 coat protein.
1. GAAGAGACAGGAUAUACAUGAGGAUCACCCAUGUGAGUAUGUUGGAGGCGGAGGAGAUGUAGAAGGGUCAAAGA [JR_Exclu3_Sub018] (puzzle: Exclusion 3)
2. AGUAGAUCUACGCUUGCGUGGAUCUGCAAUGCAGGUGUUACAUGAGGAUCACCCAUGUCCUCAUUUGCUCGUCUUAG [JL turnoff v2 99.06] (puzzle: Sensor v3, turn-off variant 2)

1: 0.0363; 2: 0.0974
